# Test system: NCIH727
# Assay notes: CellTiter-Glo Reagent cancer cell line proliferation assay, NCIH727
# Type: cell-based, human
# Assay conditions: Homo sapiens, NCI-H727, 24 h, NCIH727, KRAS(G12V) heterozygous
# Protocol: […] Cells were plated in 96-well tissue culture plates at 4,000 cells/well and incubated at 37° C./5% CO2 for 24 hr in 100 μl of media. […] Results were analyzed and IC50-values were calculated in GraphPad 7 software.
Measured attribute: IC50

Observe how each entry below is paired with its result.
C#Cc1c(F)ccc2cc(O)cc(-c3ncc4c(N5CC6CCC(C5)N6C(=O)CC(C)C#N)nc(OCC5(CN6CCN(CC7CCN(c8ccc9c(c8)n(C)c(=O)n9C8CCC(=O)NC8=O)CC7)CC6)CC5)nc4c3F)c12 (stereo not shown)    < 100 nM
C#Cc1c(F)ccc2cc(O)cc(-c3nc(OC)c4c(N5CC6CCC(C5)N6C(=O)C[C@@H](C)C#N)nc(OCC5(CN6CCN(CC7CCN(c8ccc9c(N%10CCC(=O)NC%10=O)nn(C)c9c8)CC7)CC6)CC5)nc4c3F)c12    < 100 nM
C#Cc1c(F)ccc2cc(O)cc(-c3nc(OC)c4c(N5CC6CCC(C5)N6C(=O)CCC#N)nc(OCC5(CN6CCN(CC7CCN(c8ccc9c(c8)CN(C8CCC(=O)NC8=O)C9=O)CC7)CC6)CC5)nc4c3F)c12 (stereo not shown)    < 100 nM

Briefly, IC50 measured for [2H]C([2H])([2H])Oc1nc(-c2cc(O)cc3ccc(F)c(C#C)c23)c(F)c2nc(OCC3(CN4CCN(CC5CCN(c6ccc(NC7CCC(=O)NC7=O)cc6)CC5)CC4)CC3)nc(N3CC4CCC(C3)N4C(=O)CC#N)c12 (stereo not shown) : 100 to 1000 nM

* * *

Below: a set of entries, each annotated with reported pIC50.
# Tested on: AGS
# Assay notes: CellTiter-Glo Reagent cancer cell line proliferation assay, AGS
# Type: cell-based, human
# Assay conditions: Homo sapiens, 24 h, KRAS(G12D) heterozygous
pIC50: −log10 of the molar value.

Observe how each entry below is paired with its result.
C#Cc1c(F)ccc2cc(O)cc(-c3ncc4c(N5CC6CCC(C5)N6)nc(OCC5(CN6CCN(CC7CCN(c8ccc9c(=O)n(C%10CCC(=O)NC%10=O)ncc9c8)CC7)CC6)CC5)nc4c3F)c12 (stereo not shown)    > 7.00
C#Cc1cccc2cc(O)cc(-c3ncc4c(N5CC6CCC(C5)N6)nc(OCC5(CN6CCN(C(=O)C7CCN(c8ccc9c(c8)CN(C8CCC(=O)NC8=O)C9=O)CC7)CC6)CC5)nc4c3F)c12 (stereo not shown)    > 7.00
C#Cc1c(F)ccc2cc(O)cc(-c3nc(OC)c4c(N5CC6CCC(C5)N6C(=O)CCC#N)nc(OCC5(CN6CCC(CN7CCC(N8Cc9cc%10c(cc9C8)C(=O)N(C8CCC(=O)NC8=O)C%10)CC7)CC6)CC5)nc4c3F)c12 (stereo not shown)    > 7.00

# evaluate next
Briefly, pIC50 measured for O=CO.[2H]C([2H])([2H])Oc1nc(-c2cc(O)cc3ccc(F)c(C#C)c23)c(F)c2nc(OCC3(CN4CCN(CC5CCN(c6ccc7c(c6)CN(C6CCC(=O)NC6=O)C7=O)CC5)CC4)CC3)nc(N3CC4CCC(C3)N4CCC#N)c12 (stereo not shown) : 6.00 to 7.00

Origin of the recorded values: patent US20260325654A1
